# protocolNotes: in vitro
# conditionContext: human, hela cells, % viability
readout: viability at 28.5 h, 10 µM (%)
The response must be a number in % with no trailing unit.

*Q* Entry "COc1nc(-c2cccnc2)cn2ccnc12" : reported viability at 28.5 h, 10 µM = ?
*A* 82.1

*Q* Quick check: viability at 28.5 h, 10 µM of "CN(C)S(=O)(=O)Nc1cccc2cc[nH]c12" ?
*A* 92.8

*Q* Recorded viability at 28.5 h, 10 µM for "Cc1ccccc1C(=O)NCC(=O)NCc1csc(-c2ccccc2)n1" , please?
*A* 91.8

*Q* Can you share its viability at 28.5 h, 10 µM? I mean this molecule: "CCCNc1nccnc1-c1ccccc1F"
*A* 104

*Q* What measured viability at 28.5 h, 10 µM goes with "Cc1cn2c3c(=O)n(C)c(=O)n(C)c3nc2n1CCN1CCOCC1" ?
*A* 91.7

*Q* Would you mind telling me what viability at 28.5 h, 10 µM value was observed for Cc1ccccc1NC(=O)Cc1nc(CN2CCC3(CCOC3)C2)cs1 (centres unmarked) ?
*A* 95.5

*Q* Find the recorded viability at 28.5 h, 10 µM belonging to "O=C(CSc1nnc(-c2cccnc2)n1Cc1ccccc1)NCc1ccccc1" and report it.
*A* 95.7

*Q* Please report the recorded viability at 28.5 h, 10 µM for "COC(=O)CN(c1ccc(Cl)cc1Cl)S(C)(=O)=O" .
*A* 105

*Q* # input molecule: "COc1ccc(-c2cn[nH]c2-c2ccc(OCCN3CCOCC3)cc2O)cc1" ; wanted: its viability at 28.5 h, 10 µM
*A* 97

*Q* // lookup viability at 28.5 h, 10 µM for CC(=O)NC(CCCN=C(N)N)C(=O)O (centres unmarked)
*A* 107

*Q* Reported viability at 28.5 h, 10 µM for "CN(C)CCCC(=O)Nc1ccc2c(ccn2Cc2ccccc2)c1" : what is it?
*A* 91.2

*Q* What measured viability at 28.5 h, 10 µM goes with Cc1cc(C)n(CC(=O)N2CCCC2c2cc3cccnc3[nH]2)n1 (centres unmarked) ?
*A* 97.1

*Q* Look up viability at 28.5 h, 10 µM: "CCc1cn(C[C@H](NC(=O)C2CCC2)C(=O)O)c(=O)[nH]c1=O"
*A* 97.1

*Q* Would you mind telling me what viability at 28.5 h, 10 µM value was observed for "NCCn1cc(-c2cccc(F)c2)c(C2CCOCC2)n1" ?
*A* 91.1

*Q* Fill in the blank: the reported viability at 28.5 h, 10 µM of CC(C)Oc1ccc(C2CC(=O)N(c3cccc(C(=O)O)c3)C2=O)cc1 (centres unmarked) is ____.
*A* 89.8

*Q* For the molecule shown here, O=C(C1CN(S(=O)(=O)c2ccccc2)CCN1S(=O)(=O)c1ccccc1)N1CCCCC1 (centres unmarked) , give the reported viability at 28.5 h, 10 µM.
*A* 86.4

*Q* Which viability at 28.5 h, 10 µM is reported for this molecule? "Cc1cc(NC(=O)CC2CC2)c2ccccc2n1"
*A* 98.6

*Q* Find the recorded viability at 28.5 h, 10 µM belonging to CCOc1cccc(OCC(=O)N2CCC(c3cc(C(=O)NC)c4ccccc4n3)C2)c1 (centres unmarked) and report it.
*A* 81.5

*Q* So what does the record say about viability at 28.5 h, 10 µM for "Cn1c(=O)oc2ccc(C(=O)Nc3cccc(-c4ccc(F)cc4)c3)cc21" ?
*A* 84.9

*Q* Field request: viability at 28.5 h, 10 µM | item: "CCC(C)(C)c1ccc(S(=O)(=O)N2CCN(Cc3c(C)nn(C)c3C)CC2)cc1"
*A* 97.2
